Each record here notes measured hIL1RAP kdis(1/s).
experimental_target: T1, hIL1RAP (Homo sapiens, UniProt Q9NPH3)
T1 sequence (Q9NPH3 21-367 limits assumed): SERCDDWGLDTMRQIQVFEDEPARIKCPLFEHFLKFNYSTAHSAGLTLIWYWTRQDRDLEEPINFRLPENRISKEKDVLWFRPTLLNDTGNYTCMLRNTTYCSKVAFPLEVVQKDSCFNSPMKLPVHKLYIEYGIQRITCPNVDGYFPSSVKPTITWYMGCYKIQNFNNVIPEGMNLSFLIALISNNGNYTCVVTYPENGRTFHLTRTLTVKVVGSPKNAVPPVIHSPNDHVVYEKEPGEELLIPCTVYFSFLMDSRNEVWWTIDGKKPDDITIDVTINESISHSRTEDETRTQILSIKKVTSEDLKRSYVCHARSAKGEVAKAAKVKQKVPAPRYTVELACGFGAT
experiment: Kinetics of IL1RAP mAbs by Octet, human IL1RAP
Type: binding
Design: extracellular domain His-tagged, Cat #10121-H08H; His; purchased Sino Biological lot MB08MA1301 (catalogue number not given)
All answers are understood in s⁻¹, so give the number only.

Record excerpt, results attached:
molecule	units_of_measure	hIL1RAP kdis(1/s)
74804_51C10A: anti-IL1RAP mAb; VH SEQ ID NO:8, VL SEQ ID NO:24, κ light chain (antibody, V domains shown, 74804_51C10A VH; 74804_51C10A VL) VH: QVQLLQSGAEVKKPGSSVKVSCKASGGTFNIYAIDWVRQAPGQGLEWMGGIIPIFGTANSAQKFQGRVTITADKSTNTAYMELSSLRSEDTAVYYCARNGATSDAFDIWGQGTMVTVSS VL: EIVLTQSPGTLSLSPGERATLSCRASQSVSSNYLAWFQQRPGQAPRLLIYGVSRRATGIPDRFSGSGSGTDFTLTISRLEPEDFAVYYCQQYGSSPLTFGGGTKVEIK	s⁻¹	0.000301
74804_07K10A: anti-IL1RAP mAb; VH SEQ ID NO:5, VL SEQ ID NO:22, κ light chain (antibody, V domains shown, 74804_07K10A VH; 74804_07K10A VL, 74804_29D13A VL and 74804_43F04A VL) VH: QVQLLQSGAEVKKPGSSVKVSCRASGGTFSIYAIDWVRQAPGQGLEWMGGIIPISGTENSAQNFQDRITITADKSTNTAYMELSSLRSEDTAVYYCARNGATSDAFDIWGQGTMVTVSS VL: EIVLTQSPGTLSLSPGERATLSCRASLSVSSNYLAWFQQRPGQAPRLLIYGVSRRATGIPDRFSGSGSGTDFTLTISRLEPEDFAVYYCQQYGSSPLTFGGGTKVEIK	s⁻¹	0.000234

// next entry
So for 74804_29D13A: anti-IL1RAP mAb; VH SEQ ID NO:6, VL SEQ ID NO:22, κ light chain (antibody, V domains shown, 74804_12A21B VH and 74804_29D13A VH; 74804_07K10A VL, 74804_29D13A VL and 74804_43F04A VL) VH: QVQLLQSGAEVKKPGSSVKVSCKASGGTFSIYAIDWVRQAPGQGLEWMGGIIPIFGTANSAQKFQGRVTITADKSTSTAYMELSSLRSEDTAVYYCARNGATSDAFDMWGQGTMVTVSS VL: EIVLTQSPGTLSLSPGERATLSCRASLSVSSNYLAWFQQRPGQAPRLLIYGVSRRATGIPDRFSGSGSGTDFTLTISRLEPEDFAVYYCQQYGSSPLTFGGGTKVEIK , the logged hIL1RAP kdis(1/s) turned out to be 0.000361
